Record form. Attribute: Kd. Fill in for each entry.
molecular target: T1, extracellular domain (ECD) of human epidermal growth factor receptor 2 (HER2) (Homo sapiens, UniProt P04626); experiment: SPR; BIAcore T200; HER2/ECD immobilised on a CM5 chip by amine coupling to 1000 RU; IgG flowed in PBST (0.05% Tween 20) at 30 uL/min; regeneration 10 mM glycine pH 1.5; global fit to a 1:1 binding model; conditions: both partners purified
T1 construct: human epidermal growth factor receptor 2 (HER2), extracellular domain; also called HER2/ECD
Reply with the number and its unit after it.

For orientation, consider the following solved cases.
binder: M64 IgG (mouse anti-HER2/ECD) (antibody, V domains shown, mouse VL; L49~L53 YWAST; L91~L96 HYSTPY; mouse VH; H50~H58 RIDPANGNTK; H96~H100B YRGAM; recombinant IgG from a scFv of an immunized mouse's phage library; source: HEK293-F, transient transfection, purified (Protein A, Superdex 200)) VH: EVQLQQSGAELVKPGASVKLSCTASGFNIKNTYMHWVKQRPEQGLEWIGRIDPANGNTKYDPKLQGKATITADTSSNTAYLHLSSLTSEDTAVYYCVPYYRGAMDYWGQGTSVTVSS VL: DIQMNQSHKFMSTSVGDRVSITCKASQDVSTAVAWYQQKPGQSPKLLIYWASTRHTGVPGRFTGSGSGADYTLTISSVQAEDLALYYCQQHYSTPYTFGGGTKLEIK
measured value: 194 pM

binder: GH2-18 IgG (antibody, V domains shown, source: HEK293-F, transient transfection, purified (Protein A, Superdex 200)) VH: EVQLVESGGGLVQPGGSLRLSCAASGFTISNWGIHWVRQAPGKGLEWVAGIWPYGGYTFYADSVKGRFTISADTSKNTAYLQMNSLRAEDTAVYYCARFNYLNLGGMDYWGQGTLVTVSS VL: DIQMTQSPSSLSASVGDRVTITCRASQDVNSNVAWYQQKPGKAPKLLIYWTTGLYSGVPSRFSGSGSGTDFTLTISSLQPEDFATYYCQQYLSGPITFGQGTKVEIK
measured value: 69.5 pM

Moving on to another binder below.
Reported Kd, binder M32 IgG (mouse anti-HER2/ECD) (antibody, V domains shown, mouse VL; L49~L53 YSASN; L91~L96 YSSYPL; mouse VH; H50~H58 WIDPENGNTI; H96~H100B YYGSRVL; recombinant IgG from a scFv of an immunized mouse's phage library; source: HEK293-F, transient transfection, purified (Protein A, Superdex 200)) VH: EVQLVESGAELVRPGALVKLSCKASGFNIKDYFMYWVKQRPEQGLEWVGWIDPENGNTIYDPKFQGKASITADTSSNTAYLQLSSLTSEDTAVYYCTRGYYGSRVLAMDYWGQGTSVTVSS VL: GIELTQSQKFMSTSVGDRVSITCKASQNVGTAVAWYQQKPGQSPKLLIYSASNRYTGVPDRFTGSGSGTDFTLTISNMQSEDLADYFCQQYSSYPLAFGGGTKLEIK : ____
243 pM
